Molecular target: T1, FLAG-tagged human APRIL (human, UniProt O75888 105-250, limits assumed)
T1 construct: also called FLAG-tagged APRIL; FLAG-APRIL; not shown: FLAG tag
T1 sequence (looked up): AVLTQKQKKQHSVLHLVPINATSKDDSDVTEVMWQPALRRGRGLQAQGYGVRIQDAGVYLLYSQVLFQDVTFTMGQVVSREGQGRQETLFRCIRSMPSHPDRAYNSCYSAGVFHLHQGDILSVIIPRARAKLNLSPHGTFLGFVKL
Experiment: FLAG-APRIL ELISA after 10 min at 70 °C, antibody at 0.316 µg/ml
Quantity: % residual binding after heat treatment (room temperature = 100%)
Value expressed in %; do not type the unit.

[[record]]
binder = "VH13.VL15 (antibody, human IgG4 S228P, kappa, V domains shown, Humanized IgG4 (S241P, Kabat) with human kappa, from HEK293T; also called 13.15) VH: QVQLVQSGAEVKKPGASVKVSCKASGYTFTSYVMHWVRQAPGQGLEWMGYINPYNDAPKYNEKFKGRVTMTRDTSTSTVYMELSSLRSEDTAVYYCARGLGYALYYAMDYWGQGTMVTVSS VL: DIVMTQSPSTLSASVGDRVTITCKASQNVGNNVAWYQQKPGKAPKLLISSASNRDSGVPSRFSGSGSGTEFTLTISSLQPDDFATYFCQQYNIYPFTFGQGTKLEIKR"
test_result = 65

[[record]]
binder = "VH14.VL15 (antibody, human IgG4 S228P, kappa, V domains shown, Humanized IgG4 (S241P, Kabat) with human kappa, from HEK293T) VH: QVQLVQSGAEVKKPGASVKVSCKASGYTFTSYVMHWVRQAPGQGLEWMGYINPYNDAPKYNEKFKGRVTMTRDTSASTAYMELSSLRSDDTAVYYCARGLGYALYYAMDYWGQGTTVTVSS VL: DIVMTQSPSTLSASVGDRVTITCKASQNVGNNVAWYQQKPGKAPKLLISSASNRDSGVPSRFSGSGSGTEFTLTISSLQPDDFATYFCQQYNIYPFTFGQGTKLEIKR"
test_result = 63.1

[[record]]
binder = "hAPRIL.01A (antibody, mouse IgG1, kappa, V domains shown, Mouse antibody; also called mouse hAPRIL.01A antibody) VH: EVQLQQSGPELVKPGASVKMSCKASGYTFTSYVMHWVKQKPGQGLEWIGYINPYNDAPKYNEKFKGKATVTSDKSSGTAYMELSSLTSEDSAVYYCARGLGYALYYAMDYWGQGTSVTVSS VL: DIVMTQSQKFKSTSVGDRVSVTCKASQNVGNNVAWYQQKAGQSPKALISSASNRDSGVPDRFTGSGSGTDFTLTISNVQSEDLADYFCQQYNIYPFTFGSGTKLEIKR"
test_result = 11.2


Consider now this further binder.
Which % residual binding after heat treatment (room temperature = 100%) is reported for this binder? VH12.VL15 (antibody, human IgG4 S228P, kappa, V domains shown, Humanized IgG4 (S241P, Kabat) with human kappa, from HEK293T; also called 12.15) VH: QVQLVQSGAEVKKPGASVKVSCKASGYTFTSYVMHWVRQAPGQGLEWMGYINPYNDAPKYNEKFKGRVTMTRDTSISTAYMELSRLRSDDTAVYYCARGLGYALYYAMDYWGQGTTVTVSS VL: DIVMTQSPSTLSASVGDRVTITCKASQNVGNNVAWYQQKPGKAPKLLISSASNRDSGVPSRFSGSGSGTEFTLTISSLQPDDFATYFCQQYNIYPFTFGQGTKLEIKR
70.3
